- EXPERIMENT NOTES: Human HepG2 cell viability assay in 384 well format
- Type: toxicity, cell-based
- Design: dose 125 nL, time 70.5 hour; concentration not given beside the values
- CONDITION PARAMETERS: HepG2 cells, read-out: Inhibition
Each item that follows carries a reported cytotoxicity at 70.5 h.
EXPERIMENTAL ENDPOINT: cytotoxicity at 70.5 h (%)

>>> observed_value("NC(=O)c1cccc(CC2CCN(C(=O)CCCN3CCOCC3)C2)c1 (stereo not given)")
-4.93
>>> observed_value("CC1(c2ccccc2)CCC(=O)N(CCCN2CCOCC2)C1 (stereo not given)")
-8.26
>>> observed_value("COCCN(Cc1ccco1)Cc1nc(-c2ccccc2C)no1")
1.45
>>> observed_value("CC(C)(C)OC(=O)NCC1CCCCN1Cc1ccncc1 (stereo not given)")
-1.8
>>> observed_value("Cc1oncc1S(=O)(=O)N1CCCC(C)(Cc2ccc3c(c2)OCO3)C1 (stereo not given)")
14.3
>>> observed_value("COCCOC1CCN(C(C(=O)O)c2ccc3c(c2)OCO3)CC1 (stereo not given)")
-6.06
>>> observed_value("N#Cc1cccnc1N1CCC(C2CCCCCN2C(=O)C2CC2)CC1 (stereo not given)")
5.51
>>> observed_value("COCCc1noc(CNCC2CCCN2c2cccnn2)n1 (stereo not given)")
2.33
>>> observed_value("Cn1cc(C(=O)NC2CCN(Cc3ccn(C)c(=O)c3)CC2)cn1")
-14
>>> observed_value("COCCn1cncc1Cn1cccc(C(F)(F)F)c1=O")
6.51
>>> observed_value("O=C1NCCN(CC2CC2)C12CCN(Cc1ccccc1)CC2")
13.9
>>> observed_value("CN(C)c1ccc(CC2CCCN(c3cnccn3)C2)nn1 (stereo not given)")
-6.12
>>> observed_value("CSc1ncccc1C(=O)N1CCCC1c1ccc(C(=O)N(C)C)s1 (stereo not given)")
-15.4
>>> observed_value("CCS(=O)(=O)CC(=O)NC(c1ccccc1)C1CCCC1 (stereo not given)")
0.476
>>> observed_value("O=C(Cc1ccccc1Cl)N1CCN(CC(O)COCCO)CC1 (stereo not given)")
1.21
>>> observed_value("O=C(CNC(=O)c1cnccn1)Nc1ncc[nH]1")
-33.4
>>> observed_value("CSc1[nH]nc(NC(=O)c2ccccc2)c1C#N")
-10
>>> observed_value("NC(=O)Cn1ccnc1C1CCCN(Cc2ccccc2OC(F)F)C1 (stereo not given)")
-6.45
>>> observed_value("COc1cccc(CC(=O)N2CCc3ncnc(NCCO)c3CC2)c1")
-9.99
>>> observed_value("Cc1cc(C)cc(C(C)NCc2nnc(C)s2)c1 (stereo not given)")
-12
>>> observed_value("Cc1csc(N2CCCN(c3cc(C)nc(C)c3C#N)CC2)n1")
-4
>>> observed_value("NC(=O)C1Cn2ccnc2C2(CCN(C(=O)c3ccncc3)CC2)O1 (stereo not given)")
-4.78
>>> observed_value("CN(C)C(C(=O)N1CCC(CCO)CC1)c1ccccc1F (stereo not given)")
8.83
>>> observed_value("CCNc1ncc(C(=O)NCc2csc(C)n2)cn1")
1.23
>>> observed_value("O=C(c1cncc(Br)c1)N1CCCc2ccc(F)cc21")
-5.54

---

Each item that follows carries a reported cytotoxicity at 70.5 h.
- EXPERIMENT NOTES: Human HepG2 cell viability assay in 384 well format
- Type: toxicity, cell-based
- Set-up: dose 125 nL, time 70.5 hour; concentration not given beside the values
- CONDITION PARAMETERS: HepG2 cells, read-out: Inhibition
EXPERIMENTAL ENDPOINT: cytotoxicity at 70.5 h (%)

>>> observed_value("CC(C)n1ccnc1C1CCCN(c2cc(C(=O)NC3CC3)ccn2)C1 (stereo not given)")
12.2
>>> observed_value("N#Cc1ccc(CN2CCCC2Cn2cccn2)c(F)c1 (stereo not given)")
4.66
>>> observed_value("CCC(C)NC(=O)c1ccc(CNC(=O)COC)cc1 (stereo not given)")
-9.97
>>> observed_value("CCNC(=O)NC(=O)CNC(C)(CC)c1nc(C)cs1 (stereo not given)")
-4.63
>>> observed_value("Cc1ncsc1C(=O)NCCNc1ncccc1C#N")
-8.88
>>> observed_value("Cc1ccn(CCC(=O)NCCc2ccco2)n1")
-3.53
>>> observed_value("CCCc1n[nH]c(C2CN(C(=O)CCc3cscn3)CCO2)n1 (stereo not given)")
-1.57
>>> observed_value("CCS(=O)(=O)c1nccn1-c1cccc(F)c1")
-9.95
>>> observed_value("COCc1ncc(CN(CCN(C)C)Cc2ccc(C)s2)cn1")
-4.43
>>> observed_value("CC(NCCCN1CCCC1=O)c1ccc(F)cc1N(C)C (stereo not given)")
-4.56
>>> observed_value("CCc1nc(CN2CCOC(Cn3nc(C)cc3C)C2)no1 (stereo not given)")
38.2
>>> observed_value("CCc1cnc(N2C[C@H]3C[C@H](C(=O)N(C)C)[C@@H](C2)O3)nc1")
-7.47
>>> observed_value("CCc1c(C(=O)N2CCN(c3ncccn3)CC2)cnn1C(C)(C)C")
-2.98
>>> observed_value("CC(NCC1=Cc2cc(Cl)ccc2OC1)c1nnc2n1CCCC2 (stereo not given)")
-3.35
>>> observed_value("COC[C@@H]1CC[C@H]2[C@H](CCN2S(=O)(=O)c2ccc(C)cc2)O1")
-4.48
>>> observed_value("CC(C)CCN1Cc2c(C(=O)N3CCCC3)nn(C)c2C1")
15
>>> observed_value("CC(=O)NC(CC(=O)Nc1nc(C)c(C)s1)c1ccccc1 (stereo not given)")
0.551
>>> observed_value("O=C1Nc2ccccc2CNC12CCN(CC1CCNC1)CC2 (stereo not given)")
-11
>>> observed_value("CN(C(=O)c1ccncc1)c1ccccc1S(C)(=O)=O")
-2.3
>>> observed_value("CC1CN(C)c2ccccc2CN1C(=O)c1cc[nH]c(=O)c1 (stereo not given)")
-0.482
>>> observed_value("Cc1cc(-c2cncnc2)ccc1OCC(N)=O")
13.6
>>> observed_value("COc1cccc(CC(=O)N2CCCC2c2nc(C)c(F)c(O)n2)c1 (stereo not given)")
-1.47
>>> observed_value("CC(=O)N1CCCC2(CN(Cc3ccc(C)s3)CCO2)C1 (stereo not given)")
0.871
>>> observed_value("N#Cc1ccc(NC2CCN(c3ncccn3)CC2)cc1C(F)(F)F")
5.96
>>> observed_value("Cc1ccccc1C(C(=O)N(C)CCc1cn[nH]c1)N(C)C (stereo not given)")
-7.29
>>> observed_value("N#CC1(C(=O)N2Cc3cc(-c4cc[nH]n4)ccc3C2c2cnco2)CC1 (stereo not given)")
1.75
>>> observed_value("Cc1noc(C)c1Cc1nc(N(C)C)no1")
-12.3
>>> observed_value("O=C(O)c1cnc2c(Br)cccc2c1O")
-5.88
>>> observed_value("CN(Cc1nccs1)C1CCN(c2ncccn2)CC1")
-8.38
>>> observed_value("CCC(NC(=O)c1ccc2[nH]ccc2c1)C(=O)N1CCOCC1 (stereo not given)")
6.49
>>> observed_value("Cc1ccsc1CNC(=O)c1ccc(N2CCNC2=O)cc1")
-10.8
>>> observed_value("CCCOc1ccc(CNCCn2cccn2)cc1")
-12.1
>>> observed_value("Cc1cc(C)n(CC2CCCCN2CC(=O)Nc2nnc(C)s2)n1 (stereo not given)")
-2.39
>>> observed_value("CN(C)c1cc2c(nn1)CCN(C(=O)C1Cc3ccccc3O1)C2 (stereo not given)")
8.33
>>> observed_value("CC(C)n1ccnc1C1CCN(C(=O)c2ccccc2)CC1")
20.7
>>> observed_value("CC(C)c1noc(C(C)N2CCN(Cc3cccs3)CC2)n1 (stereo not given)")
12.6
>>> observed_value("Cn1cc(CNC2CCCOc3c(Cl)cccc32)cn1 (stereo not given)")
3.49
>>> observed_value("CCN(Cc1ccco1)C(=O)NCc1nnc2n1CCC2")
-13.2
>>> observed_value("COCCn1ccc2cc(NC(C)=O)ccc21")
-5.43
>>> observed_value("CC(C)c1cnc(CN2CCCC(c3cc(C(N)=O)[nH]n3)C2)o1 (stereo not given)")
2.28
>>> observed_value("CCCOc1ccc(C(=O)N2CCN3CCNC(=O)C3C2)cc1Cl (stereo not given)")
-8.43
>>> observed_value("COC(=O)C1CCCN1C(=O)c1ccc(Cl)cc1F (stereo not given)")
-2.57
>>> observed_value("CSc1ccc(C(=O)C2CCCN(C(=O)Cn3cnnn3)C2)cc1 (stereo not given)")
-6.73
>>> observed_value("Brc1cccc(C2(CNCc3cc[nH]c3)CCOCC2)c1")
17.6
>>> observed_value("Brc1ccccc1-c1nnc(CNCCn2cccn2)o1")
12.2
>>> observed_value("O=c1cc(N2CCNCC2)cnn1Cc1noc(C2CCCC2)n1")
-23.8
>>> observed_value("CCN(CC)CCCNCc1cc2cc(C)ccc2[nH]c1=O")
7.87
>>> observed_value("Cn1cnnc1C1CCN(C(=O)CCCOCc2ccccc2)CC1")
-11.3
>>> observed_value("O=C(c1cc2c([nH]c1=O)CCC2)N1CCCC1c1ccc(F)cc1 (stereo not given)")
-3.95
>>> observed_value("CN(Cc1cc(Cl)c2c(c1)OCO2)Cc1cscn1")
3.03
